- Measurement target: recombinant homotrimeric HA, A/duck/Yangzhou/02/05 H8N4 (Influenza A virus A/duck/Yangzhou/02/2005 (H8N4))
- Assay details: trimeric HA microarray, transfection set 2
- Condition info: remark: other sources report otherwise
Quantity kind: Trimeric HA Binding RLU
Please answer using a numeric value trailed by its unit.

Look up Trimeric HA Binding RLU for the entries below, preserving their order.
1. TCN-528 (5087_P17) (antibody, V domains shown) VH: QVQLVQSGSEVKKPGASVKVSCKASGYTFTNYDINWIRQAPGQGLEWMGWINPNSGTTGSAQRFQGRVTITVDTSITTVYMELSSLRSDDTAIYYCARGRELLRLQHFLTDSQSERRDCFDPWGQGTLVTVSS VL: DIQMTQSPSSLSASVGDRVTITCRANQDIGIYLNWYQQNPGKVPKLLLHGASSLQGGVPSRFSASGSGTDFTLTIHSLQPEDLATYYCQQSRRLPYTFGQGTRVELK
2. TCN-527 (5086_C06) (antibody, V domains shown) VH: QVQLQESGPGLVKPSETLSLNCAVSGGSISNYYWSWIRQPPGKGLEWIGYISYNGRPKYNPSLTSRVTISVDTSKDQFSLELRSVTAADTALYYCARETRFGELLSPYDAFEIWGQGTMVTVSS VL: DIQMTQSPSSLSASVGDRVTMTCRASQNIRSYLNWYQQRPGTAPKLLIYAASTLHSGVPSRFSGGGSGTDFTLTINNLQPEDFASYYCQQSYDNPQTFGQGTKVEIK

Response given:
19800 RLU
17900 RLU

Look up Trimeric HA Binding RLU for the entries below, preserving their order.
1. TCN-504 (3251_K17) (antibody, V domains shown) VH: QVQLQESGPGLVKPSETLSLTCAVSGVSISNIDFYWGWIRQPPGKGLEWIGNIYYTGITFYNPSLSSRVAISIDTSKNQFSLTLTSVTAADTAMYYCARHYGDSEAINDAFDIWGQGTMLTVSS VL: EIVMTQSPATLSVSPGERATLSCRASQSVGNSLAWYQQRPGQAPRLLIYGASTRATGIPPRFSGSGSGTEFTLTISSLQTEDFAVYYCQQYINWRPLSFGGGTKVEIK
2. TCN-563 (5237_B21) (antibody, V domains shown) VH: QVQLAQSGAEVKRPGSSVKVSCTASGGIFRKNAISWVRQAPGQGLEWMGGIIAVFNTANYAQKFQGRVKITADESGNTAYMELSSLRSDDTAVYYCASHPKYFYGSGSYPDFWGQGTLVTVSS VL: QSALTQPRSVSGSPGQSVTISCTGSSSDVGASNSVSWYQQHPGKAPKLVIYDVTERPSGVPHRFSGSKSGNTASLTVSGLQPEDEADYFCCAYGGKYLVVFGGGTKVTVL

Response given:
1: 17800 RLU; 2: 6280 RLU
